Tested on: Escherichia coli TOP10;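 further: peptides expressed intracellularly from a pBAD plasmid library in pooled LB shake-flask culture, induced with 0.3% L-arabinose, DNA abundance read by NGS, three biological replicates, DESeq2 with apeglm shrinkage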
protocol.details: shrunken log2 fold change of peptide-encoding DNA abundance (4.5 h post-induction vs induction); higher = less antimicrobial activity (less host growth inhibition)
cond: time post-induction: 4.5 h; library: site-saturation at positions 5, 18, 19, 20
So basically every entry gets a class from its shrunken log2 fold change, ranges being bottom bin = under -0.2, middle bin = from -0.2 up to 0.03, top bin = 0.03 and over

In plain terms, what class is `RRIRHRPPRLPRPRPRPKNNPRP` ?
bottom bin

Please indicate the class for `RRIRGRPPRLPRPRPRPAHAPRP` based on its shrunken log2 fold change.
top bin

Assign a bin to `RRIRDRPPRLPRPRPRPVTMPRP`
bottom bin

Any idea which band `RRIRPRPPRLPRPRPRPKHRPRP` is in?
middle bin

Input `RRIRCRPPRLPRPRPRPQYYPRP` ; output its category
bottom bin

Looking at `RRIRYRPPRLPRPRPRPNLGPRP` , which class would you pick?
middle bin

Category of `RRIRFRPPRLPRPRPRPPMDPRP` , please.
middle bin

Any idea which band `RRIRMRPPRLPRPRPRPTVAPRP` is in?
top bin

Please indicate the class for `RRIRRRPPRLPRPRPRPAEIPRP` based on its shrunken log2 fold change.
top bin

Band assignment needed for `RRIRTRPPRLPRPRPRPMELPRP` please.
middle bin

Note: place this sequence into its band. Item: `RRIRERPPRLPRPRPRPVIRPRP`
bottom bin

In plain terms, what class is `RRIRLRPPRLPRPRPRPANMPRP` ?
middle bin

Form: Item = `RRIRERPPRLPRPRPRPTEWPRP` ; Class = ?
bottom bin

Which category fits this record: `RRIRHRPPRLPRPRPRPKFNPRP`
bottom bin

Which class holds `RRIRFRPPRLPRPRPRPTFKPRP` ?
top bin

Lab log: `RRIRTRPPRLPRPRPRPNNMPRP` — assign shrunken log2 fold change category
bottom bin

Hi, small favor: classify `RRIRNRPPRLPRPRPRPNGYPRP` by its shrunken log2 fold change when you get a moment.
middle bin

Into which category would you place `RRIRKRPPRLPRPRPRPCDDPRP` ?
middle bin

// bin(item) where item = `RRIRGRPPRLPRPRPRPDSEPRP`
top bin

Consider `RRIRVRPPRLPRPRPRPGSEPRP` . To which shrunken log2 fold change class does it belong?
top bin

Would you mind sorting `RRIRARPPRLPRPRPRPIGTPRP` into the appropriate category?
top bin

Determine which band this sequence sits in: `RRIRCRPPRLPRPRPRPRKDPRP`
middle bin

Kindly state the category for this sequence: `RRIRARPPRLPRPRPRPCKIPRP`
middle bin

# bin lookup: classify `RRIRQRPPRLPRPRPRPSHDPRP` by its shrunken log2 fold change
middle bin

Hi there! Could you help me figure out the category for `RRIRYRPPRLPRPRPRPRLHPRP` please?
bottom bin

Sort `RRIRSRPPRLPRPRPRPHPKPRP` into one of the categories.
top bin

Determine which band this sequence sits in: `RRIRERPPRLPRPRPRPQAFPRP`
middle bin

Hi, small favor: classify `RRIRNRPPRLPRPRPRPLHDPRP` by its shrunken log2 fold change when you get a moment.
middle bin

The entry to classify is `RRIRIRPPRLPRPRPRPMFRPRP` ; which class holds it?
middle bin

Each sequence maps to one class by shrunken log2 fold change. Which class for `RRIRKRPPRLPRPRPRPESLPRP` ?
middle bin

Just checking, what class would you give `RRIRYRPPRLPRPRPRPYYWPRP` here?
middle bin

Please indicate the class for `RRIRHRPPRLPRPRPRPKNPPRP` based on its shrunken log2 fold change.
middle bin

Exam item: assign `RRIRMRPPRLPRPRPRPEAKPRP` to the correct category.
top bin

Class? Entry: `RRIRNRPPRLPRPRPRPTGSPRP`
top bin

Kindly state the category for this sequence: `RRIRSRPPRLPRPRPRPCTQPRP`
bottom bin

Please indicate the class for `RRIRVRPPRLPRPRPRPVEFPRP` based on its shrunken log2 fold change.
middle bin

Sort into band: `RRIRTRPPRLPRPRPRPNWYPRP`
bottom bin

Sort into band: `RRIRIRPPRLPRPRPRPCMEPRP`
bottom bin

Class for `RRIRVRPPRLPRPRPRPRNQPRP` ?
top bin

Tag the class for `RRIRFRPPRLPRPRPRPQYDPRP`
bottom bin

State the class of the sequence shown: `RRIRIRPPRLPRPRPRPHYNPRP`
bottom bin

Class (by measured shrunken log2 fold change) for `RRIRNRPPRLPRPRPRPAKLPRP`
middle bin

# classify by shrunken log2 fold change band: `RRIRERPPRLPRPRPRPLNSPRP`
bottom bin

Dear colleague, I would appreciate it if you could identify the bin for `RRIRPRPPRLPRPRPRPSEMPRP` and reply at your convenience.
bottom bin

Where would `RRIRKRPPRLPRPRPRPAGDPRP` land among the classes by reported shrunken log2 fold change?
top bin

# bin label for `RRIRRRPPRLPRPRPRPESCPRP`
top bin

The entry to classify is `RRIRKRPPRLPRPRPRPKFTPRP` ; which class holds it?
top bin

Input `RRIRDRPPRLPRPRPRPTLHPRP` ; output its category
top bin

Using the reported shrunken log2 fold change, which band applies to `RRIRGRPPRLPRPRPRPWCEPRP` ?
top bin

Which class does `RRIRPRPPRLPRPRPRPPYNPRP` fall in?
bottom bin

Assign a bin to `RRIRKRPPRLPRPRPRPFKMPRP`
bottom bin

Category of `RRIRHRPPRLPRPRPRPDGHPRP` :
middle bin

Note: place this sequence into its band. Item: `RRIRTRPPRLPRPRPRPEHLPRP`
middle bin

Place this sequence in its band: `RRIRPRPPRLPRPRPRPHSGPRP`
middle bin

Into which bin does this sequence go? `RRIRIRPPRLPRPRPRPRPIPRP`
top bin

Bin this entry: `RRIRARPPRLPRPRPRPNQDPRP`
top bin

Which bin should I file `RRIRPRPPRLPRPRPRPNTAPRP` under?
bottom bin

Form: Item = `RRIRHRPPRLPRPRPRPKLPPRP` ; Class = ?
middle bin

Assign a category based on measured shrunken log2 fold change for `RRIRVRPPRLPRPRPRPGMDPRP` and give only the class name.
top bin

Class (by measured shrunken log2 fold change) for `RRIRCRPPRLPRPRPRPQWVPRP`
middle bin

Assign a bin to `RRIRKRPPRLPRPRPRPKPGPRP`
top bin

Record `RRIRLRPPRLPRPRPRPYFWPRP` — which class?
middle bin

Band for `RRIRERPPRLPRPRPRPLKEPRP` ?
middle bin
